Reference for the values: patent US20140348834A1

Measured kon by item
- studyTarget: T1, mouse IL-17A (mouse, UniProt Q62386 26-158, limits assumed)
- T1 construct: Purified recombinant protein in SPR; also called MuIL-17A; murine IL-17A
- T1 sequence (looked up): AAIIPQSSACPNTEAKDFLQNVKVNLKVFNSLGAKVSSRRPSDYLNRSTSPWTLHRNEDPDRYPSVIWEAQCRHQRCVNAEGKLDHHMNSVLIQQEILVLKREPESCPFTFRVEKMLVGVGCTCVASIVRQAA
- test: SPR (Biacore 3000), antibody captured by anti-Fc, antigen in solution;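 further: purified recombinant IL-17 antigens flowed over captured antibodies in HBS-EP buffer, global Langmuir one-to-one fit of association and dissociation phases, KD derived from koff over kon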
endpointName: kon (M⁻¹ s⁻¹)

binder="IL17-h5C5.9 (antibody, V domains shown, IgG; constant regions not specified; also called h5C5.9 (VH.1b-Vk.1a)) VH: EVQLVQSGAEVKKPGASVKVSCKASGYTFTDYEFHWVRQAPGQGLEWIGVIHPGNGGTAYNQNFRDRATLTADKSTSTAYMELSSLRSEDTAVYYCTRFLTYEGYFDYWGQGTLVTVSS VL: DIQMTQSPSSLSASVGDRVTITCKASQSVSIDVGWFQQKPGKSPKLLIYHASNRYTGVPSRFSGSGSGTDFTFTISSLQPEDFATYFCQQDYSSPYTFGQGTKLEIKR" quantitativeresult=279000
binder="IL17-h5C5.15 (antibody, V domains shown, IgG; constant regions not specified; also called h5C5.15 (VH.1b-Vk.3a)) VH: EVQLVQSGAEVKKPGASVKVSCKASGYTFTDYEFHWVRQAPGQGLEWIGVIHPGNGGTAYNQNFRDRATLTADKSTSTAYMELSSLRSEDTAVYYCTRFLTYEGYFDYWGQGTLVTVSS VL: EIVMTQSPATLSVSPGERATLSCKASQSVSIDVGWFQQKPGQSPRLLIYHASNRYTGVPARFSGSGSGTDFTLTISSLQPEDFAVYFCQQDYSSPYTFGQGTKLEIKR" quantitativeresult=197000
binder="IL17-h10F7.6 (antibody, V domains shown, IgG; constant regions not specified; also called h10F7.6 (VH.1a-Vk.1a)) VH: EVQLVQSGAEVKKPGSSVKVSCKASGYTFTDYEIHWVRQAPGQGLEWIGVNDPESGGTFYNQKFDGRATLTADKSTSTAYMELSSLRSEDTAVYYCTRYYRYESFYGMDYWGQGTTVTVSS VL: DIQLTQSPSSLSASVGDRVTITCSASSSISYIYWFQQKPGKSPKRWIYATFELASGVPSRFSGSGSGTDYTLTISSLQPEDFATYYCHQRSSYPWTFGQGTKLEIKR" quantitativeresult=392000
